# System: PXR:RXRa (NR concentration 270 nM, RXRa partner concentration 90 nM)
# Test summary: PBM binding z-score (relative to random genomic background probes); higher = stronger binding; sequences stand for … in GC…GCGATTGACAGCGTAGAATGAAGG
Observation type: PBM binding z-score
Just the number, please, no unit attached.

Consider the worked cases shown below.
- Seq: "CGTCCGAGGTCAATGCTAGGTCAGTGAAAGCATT"
  Endpoint result: 5.62
- Seq: "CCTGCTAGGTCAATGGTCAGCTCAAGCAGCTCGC"
  Endpoint result: 0.974
- Seq: "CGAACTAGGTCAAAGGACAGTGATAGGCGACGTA"
  Endpoint result: 1.14
- Seq: "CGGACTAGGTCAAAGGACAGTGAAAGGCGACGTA"
  Endpoint result: 1.11
- Seq: "CGTCTAAGGTCAGCAGGTCAGTGAAAGCGACGTG"
  Endpoint result: 4.16
- Seq: "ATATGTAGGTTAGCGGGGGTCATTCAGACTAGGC"
  Endpoint result: 6.34
- Seq: "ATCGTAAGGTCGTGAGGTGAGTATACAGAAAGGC"
  Endpoint result: 2.22
- Seq: "CCAAGTAGGTTACGAGGGGGCATTCAGTGCGAAT"
  Endpoint result: 5.04
- Seq: "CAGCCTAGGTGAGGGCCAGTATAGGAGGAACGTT"
  Endpoint result: -0.652
- Seq: "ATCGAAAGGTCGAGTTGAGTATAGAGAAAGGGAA"
  Endpoint result: 2.74

Tell us which PBM binding z-score value is on record for `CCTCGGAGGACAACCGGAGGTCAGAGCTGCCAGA`
2.33

Tell us which PBM binding z-score value is on record for `AAATGTAGGTTAGGGTCATTCAGAAAGTAGGGAA`
4.47
